Test system: Cryptococcus neoformans B. 42419
procedure_text: In vitro antifungal activity, microbroth dilution MIC
Assay type: cell-based
condition_description: RPMI-1640, 35° C., 4 to 48 hours, no growth observed
// not met strictly below 2 µg/mL in Minimal inhibitory concentration(MIC), Cry. neoformans B. 42419; met otherwise

# compound, group_label
rows = [
    ("Cc1ccc(C(=C(F)OCC2COC(Cn3cncn3)(c3ccc(Cl)cc3Cl)O2)C(F)(F)F)cc1 (mixture of isomers)", "not met"),
]

[Q] Textbook exercise: given the entry FC(=C(c1cc(Cl)cc(Cl)c1)C(F)(F)F)N1CCN(c2ccc(OCC3COC(Cn4ccnc4)(c4ccc(Cl)cc4Cl)O3)cc2)CC1 (mixture of isomers) , state whether its Minimal inhibitory concentration(MIC), Cry. neoformans B. 42419 is greater than or equal to 2 µg/mL.
[A] met

[Q] Textbook exercise: given the entry FC(=Cc1ccc2c(c1)OCO2)OCC1COC(Cn2cncn2)(c2ccc(Cl)cc2Cl)O1 (mixture of isomers) , state whether its Minimal inhibitory concentration(MIC), Cry. neoformans B. 42419 is greater than or equal to 2 µg/mL.
[A] not met

[Q] Textbook exercise: given the entry CCOc1ccc(C(=C(F)OCC2COC(Cn3cncn3)(c3ccc(Cl)cc3Cl)O2)C(F)(F)F)cc1 (mixture of isomers) , state whether its Minimal inhibitory concentration(MIC), Cry. neoformans B. 42419 is greater than or equal to 2 µg/mL.
[A] not met

[Q] Textbook exercise: given the entry FC(=Cc1ccc(Cl)cc1)OCC1COC(Cn2cncn2)(c2ccc(Cl)cc2Cl)O1 (mixture of isomers) , state whether its Minimal inhibitory concentration(MIC), Cry. neoformans B. 42419 is greater than or equal to 2 µg/mL.
[A] met

[Q] Textbook exercise: given the entry Cc1cc(C)cc(C=C(F)OCC2COC(Cn3cncn3)(c3ccc(Cl)cc3Cl)O2)c1 (mixture of isomers) , state whether its Minimal inhibitory concentration(MIC), Cry. neoformans B. 42419 is greater than or equal to 2 µg/mL.
[A] met

[Q] Textbook exercise: given the entry Cc1cc(C)cc(C(=C(F)N2CCN(c3ccc(OCC4COC(Cn5ccnc5)(c5ccc(F)cc5F)O4)cc3)CC2)C(F)(F)F)c1 (mixture of isomers) , state whether its Minimal inhibitory concentration(MIC), Cry. neoformans B. 42419 is greater than or equal to 2 µg/mL.
[A] not met

[Q] Textbook exercise: given the entry COc1cccc(C(=C(F)N2CCN(c3ccc(OCC4COC(Cn5ccnc5)(c5ccc(F)cc5F)O4)cc3)CC2)C(F)(F)F)c1 (mixture of isomers) , state whether its Minimal inhibitory concentration(MIC), Cry. neoformans B. 42419 is greater than or equal to 2 µg/mL.
[A] not met

[Q] Textbook exercise: given the entry FC(Oc1ccc(OCC2COC(Cn3ccnc3)(c3ccc(F)cc3F)O2)cc1)=C(c1cccc(F)c1)C(F)(F)F (mixture of isomers) , state whether its Minimal inhibitory concentration(MIC), Cry. neoformans B. 42419 is greater than or equal to 2 µg/mL.
[A] met

[Q] Textbook exercise: given the entry Cc1ccc(C(=C(F)Oc2ccc(OCC3COC(Cn4ccnc4)(c4ccc(Cl)cc4Cl)O3)cc2)C(F)(F)F)cc1 (mixture of isomers) , state whether its Minimal inhibitory concentration(MIC), Cry. neoformans B. 42419 is greater than or equal to 2 µg/mL.
[A] met

[Q] Textbook exercise: given the entry FC(Oc1ccc(OCC2COC(Cn3ccnc3)(c3ccc(F)cc3F)O2)cc1)=C(c1ccc2c(c1)OCO2)C(F)(F)F (mixture of isomers) , state whether its Minimal inhibitory concentration(MIC), Cry. neoformans B. 42419 is greater than or equal to 2 µg/mL.
[A] not met

[Q] Textbook exercise: given the entry FC(Oc1ccc(OCC2COC(Cn3ccnc3)(c3ccc(F)cc3F)O2)cc1)=C(c1cccc(C(F)(F)F)c1)C(F)(F)F (mixture of isomers) , state whether its Minimal inhibitory concentration(MIC), Cry. neoformans B. 42419 is greater than or equal to 2 µg/mL.
[A] met

###

Tested on: Cryptococcus neoformans IFM. 40092
procedure_text: In vitro antifungal activity, microbroth dilution MIC
Format: cell-based
condition_description: Cry. neoformans IFM. 40092, RPMI-1640, 35° C., 4 to 48 hours
parameter_measured: Minimal inhibitory concentration (MIC) (µg/mL)
Numbers only, in µg/mL.

# compound, output_unit, value_reported
rows = [
    ("Cc1ccc(C=C(F)OCC2COC(Cn3ccnc3)(c3ccc(Cl)cc3Cl)O2)cc1C (stereo not shown)", "µg/mL", 1.56),
    ("FC(OCC1COC(Cn2ccnc2)(c2ccc(Cl)cc2Cl)O1)=C(c1cccs1)C(F)(F)F (mixture of isomers)", "µg/mL", 0.78),
    ("Cc1cc(C=C(F)OCC2COC(Cn3ccnc3)(c3ccc(F)cc3F)O2)ccc1Cl (mixture of isomers)", "µg/mL", 0.20),
]

// for each compound below, give its Minimal inhibitory concentration (MIC)
1. CCc1ccc(C=C(F)OCC2COC(Cn3ccnc3)(c3ccc(F)cc3F)O2)cc1 (mixture of isomers)
2. Cc1cc(C)cc(C(=C(F)OCC2COC(Cn3ccnc3)(c3ccc(Cl)cc3Cl)O2)C(F)(F)F)c1 (stereo not shown)
3. FC(=Cc1ccc(Cl)cc1)OCC1COC(Cn2ccnc2)(c2ccc(Cl)cc2Cl)O1 (stereo not shown)
4. CC(C)Oc1cccc(C=C(F)OCC2COC(Cn3ccnc3)(c3ccc(F)cc3F)O2)c1 (mixture of isomers)
5. FC(OCC1COC(Cn2ccnc2)(c2ccc(F)cc2F)O1)=C(c1ccc(Oc2ccccc2)cc1)C(F)(F)F (mixture of isomers)

[A]
1: 0.20; 2: 0.39; 3: 0.39; 4: 0.39; 5: 0.39

// for each compound below, give its Minimal inhibitory concentration (MIC)
1. FC(=Cc1ccc(F)cc1)OCC1COC(Cn2ccnc2)(c2ccc(Cl)cc2Cl)O1 (stereo not shown)
2. FC(OCC1COC(Cn2ccnc2)(c2ccc(F)cc2F)O1)=C(c1cccc(C(F)(F)F)c1)C(F)(F)F (mixture of isomers)
3. Cc1ccc(C=C(F)OCC2COC(Cn3ccnc3)(c3ccc(F)cc3F)O2)cc1 (mixture of isomers)
4. FC(=Cc1cccc2ccccc12)OCC1COC(Cn2ccnc2)(c2ccc(F)cc2F)O1 (mixture of isomers)

[A]
0.39
0.39
0.20
0.20

###

Test system: Aspergillus niger A. 16404
procedure_text: In vitro antifungal activity, microbroth dilution MIC
Type: cell-based
condition_description: RPMI-1640, 35° C., 4 to 48 hours, no growth observed
parameter_measured: Minimal inhibitory concentration(MIC), A. niger A. 16404 (µg/mL)
One number for each entry, in µg/mL.

# compound, tested_target, value_reported
records = [
    ("Cc1cccc(C(=C(F)N2CCN(c3ccc(OCC4COC(Cn5ccnc5)(c5ccc(F)cc5F)O4)cc3)CC2)C(F)(F)F)c1 (mixture of isomers) [Ex. 139]", "Aspergillus niger A. 16404", 100),
]

Now look at this one.
[Q] Name the recorded Minimal inhibitory concentration(MIC), A. niger A. 16404 for Cc1ccc(C=C(F)OCC2COC(Cn3cncn3)(c3ccc(Cl)cc3Cl)O2)cc1 (mixture of isomers) [Ex. 71] .
[A] 100

###

What Minimal inhibitory concentration(MIC), Cry. neoformans A. 34144 was measured for each of the following?
System: Cryptococcus neoformans A. 34144
procedure_text: In vitro antifungal activity, microbroth dilution MIC
Type: cell-based
condition_description: RPMI-1640, 35° C., no growth observed
Give bare numbers, in µg/mL.

# compound, value_reported
rows = [
    ("FC(=C(c1ccc(Oc2ccccc2)cc1)C(F)(F)F)N1CCN(c2ccc(OCC3COC(Cn4ccnc4)(c4ccc(F)cc4F)O3)cc2)CC1 (mixture of isomers)", 1.56),
    ("FC(=C(c1ccc(C(F)(F)F)cc1)C(F)(F)F)N1CCN(c2ccc(OCC3COC(Cn4ccnc4)(c4ccc(F)cc4F)O3)cc2)CC1 (mixture of isomers)", 3.13),
    ("COc1ccc(C(=C(F)N2CCN(c3ccc(OCC4COC(Cn5ccnc5)(c5ccc(F)cc5F)O4)cc3)CC2)C(F)(F)F)cc1 (mixture of isomers)", 3.13),
    ("COc1cccc(C(=C(F)N2CCN(c3ccc(OCC4COC(Cn5ccnc5)(c5ccc(F)cc5F)O4)cc3)CC2)C(F)(F)F)c1 (mixture of isomers)", 3.13),
    ("Cc1cc(C)cc(C(=C(F)N2CCN(c3ccc(OCC4COC(Cn5ccnc5)(c5ccc(F)cc5F)O4)cc3)CC2)C(F)(F)F)c1 (mixture of isomers)", 1.56),
]

// for each compound below, give its Minimal inhibitory concentration(MIC), Cry. neoformans A. 34144
1. FC(=C(c1cccc(F)c1)C(F)(F)F)N1CCN(c2ccc(OCC3COC(Cn4ccnc4)(c4ccc(F)cc4F)O3)cc2)CC1 (mixture of isomers)
2. FC(=C(c1ccc(F)cc1)C(F)(F)F)N1CCN(c2ccc(OCC3COC(Cn4ccnc4)(c4ccc(F)cc4F)O3)cc2)CC1 (mixture of isomers)
3. FC(=C(c1ccc(Cl)cc1)C(F)(F)F)N1CCN(c2ccc(OCC3COC(Cn4ccnc4)(c4ccc(F)cc4F)O3)cc2)CC1 (mixture of isomers)

[A]
1. 0.78
2. 0.78
3. 0.78

// for each compound below, give its Minimal inhibitory concentration(MIC), Cry. neoformans A. 34144
1. FC(=C(c1cc(Cl)cc(Cl)c1)C(F)(F)F)N1CCN(c2ccc(OCC3COC(Cn4ccnc4)(c4ccc(F)cc4F)O3)cc2)CC1 (mixture of isomers)
2. FC(=C(c1ccc2c(c1)OCO2)C(F)(F)F)N1CCN(c2ccc(OCC3COC(Cn4ccnc4)(c4ccc(F)cc4F)O3)cc2)CC1 (mixture of isomers)

[A]
[1.56, 3.13]
